- assay-remarks: survival rate of the cells in the EBV-EA induction inhibiting test
- Type: cell-based
- test-context: human, raji cells, 8 μg/ml
recorded-endpoint: viability at 48 h

## Input Sample C=C(C)[C@@H](CC=C(C)C)C[C@@]12C[C@@H](CC=C(C)C)C(C)(C)[C@@](CC=C(C)C)(C(=O)C(C(=O)c3ccc(O)c(O)c3)=C1O)C2=O [garcinol] — what was its viability at 48 h?
## Output ≥ 80%
